Tested on: Trichomonas vaginalis
Experiment: Trichomonicidal activity against Trichomonas vaginalis JH31A#4 trophozite assessed as inhibition of parasite growth at 300 uM after 24 hrs by resazurin redox dye based fluorimetric microtiter method
Assay type: functional
Settings: JH31A#4, 24 h

{"molecule": "O=C1Nc2cc([N+](=O)[O-])ccc2N2CCCOC12 (stereo unspecified)", "tested on": "Trichomonas vaginalis", "inhibition at 300 µM": "99.5%"}
{"molecule": "CN1C(=O)CN(CCCO)c2ccc([N+](=O)[O-])cc21", "tested on": "Trichomonas vaginalis", "inhibition at 300 µM": "94.8%"}
{"molecule": "Cl.O=C1CN(CCCN2CCCCC2)c2ccc([N+](=O)[O-])cc2N1", "tested on": "Trichomonas vaginalis", "inhibition at 300 µM": "100%"}
{"molecule": "O=c1[nH]c2cc([N+](=O)[O-])ccc2n(CCCCCl)c1=O", "tested on": "Trichomonas vaginalis", "inhibition at 300 µM": "94.9%"}
{"molecule": "CN(C)CCN1CC(=O)N(C)c2cc([N+](=O)[O-])ccc21", "tested on": "Trichomonas vaginalis", "inhibition at 300 µM": "100%"}
{"molecule": "Cl.O=C1CN(CCN2CCCCC2)c2ccc([N+](=O)[O-])cc2N1", "tested on": "Trichomonas vaginalis", "inhibition at 300 µM": "99%"}
{"molecule": "CN1C(=O)CN(CCCN2CCCCC2)c2ccc([N+](=O)[O-])cc21", "tested on": "Trichomonas vaginalis", "inhibition at 300 µM": "99.3%"}
{"molecule": "O=c1[nH]c2cc([N+](=O)[O-])ccc2n(CCCCCBr)c1=O", "tested on": "Trichomonas vaginalis", "inhibition at 300 µM": "79.6%"}
{"molecule": "Cn1c(=O)c(=O)n(C)c2cc([N+](=O)[O-])ccc21", "tested on": "Trichomonas vaginalis", "inhibition at 300 µM": "61.4%"}
{"molecule": "O=c1[nH]c2cc([N+](=O)[O-])ccc2n(CCCCCCCl)c1=O", "tested on": "Trichomonas vaginalis", "inhibition at 300 µM": "95.8%"}
{"molecule": "CN1C(=O)CN(CCN2CCCCC2)c2ccc([N+](=O)[O-])cc21", "tested on": "Trichomonas vaginalis", "inhibition at 300 µM": "100%"}

====

System: Trichomonas vaginalis
Assay: Trichomonicidal activity against Trichomonas vaginalis JH31A#4 trophozite assessed as inhibition of parasite growth at 150 uM after 24 hrs by resazurin redox dye based fluorimetric microtiter method
Assay type: functional
Conditions: JH31A#4, 24 h
The reader will find reported inhibition at 150 µM values listed item by item below.

{"molecule": "Cn1c(=O)c(=O)n(CCCCCBr)c2ccc([N+](=O)[O-])cc21", "inhibition at 150 µM, %": 42.8}
{"molecule": "O=c1[nH]c2cc([N+](=O)[O-])ccc2n(CCCCCBr)c1=O", "inhibition at 150 µM, %": 49}
{"molecule": "Cn1c(=O)c(=O)n(C)c2cc([N+](=O)[O-])ccc21", "inhibition at 150 µM, %": 35.4}
{"molecule": "Cn1c(=O)c(=O)n(CCCCCl)c2ccc([N+](=O)[O-])cc21", "inhibition at 150 µM, %": 52.7}
{"molecule": "Cc1ncc([N+](=O)[O-])n1CCO [METRONIDAZOLE]", "inhibition at 150 µM, %": 100}
{"molecule": "Cl.O=C1CN(CCN2CCCCC2)c2ccc([N+](=O)[O-])cc2N1", "inhibition at 150 µM, %": 82.2}
{"molecule": "CCN(CC)CCCN1CC(=O)N(C)c2cc([N+](=O)[O-])ccc21.Cl", "inhibition at 150 µM, %": 100}
{"molecule": "CCN(CC)CCCN1CC(=O)Nc2cc([N+](=O)[O-])ccc21.Cl", "inhibition at 150 µM, %": 64.2}
{"molecule": "CN(C)CCN1CC(=O)N(C)c2cc([N+](=O)[O-])ccc21", "inhibition at 150 µM, %": 99.9}
{"molecule": "CN1C(=O)CN(CCCO)c2ccc([N+](=O)[O-])cc21", "inhibition at 150 µM, %": 77.2}
{"molecule": "CN1C(=O)CN(CCN2CCCCC2)c2ccc([N+](=O)[O-])cc21", "inhibition at 150 µM, %": 100}

Data provenance is ChEMBL document CHEMBL3576838.
